- TEST TARGET: UniProt:P03372
- TEST DETAILS: Displacement of [3H]estradiol from ERalpha isolated from BL21 cells relative to estradiol at 25 degC
- Type: cell-free
Can you tell me RBA for the items I'm about to list?
Answers are plain numbers.

Reference set, count: 2
{"columns": ["STRUCTURE SMILES", "RBA"],
 "data": [
  ["CO[C@H]1C[C@@]2(C)[C@@H](CC[C@@]2(O)/C=C/c2ccc(C(F)(F)F)cc2)[C@@H]2CCc3cc(O)ccc3[C@H]21", 5],
  ["CO[C@H]1C[C@@]2(C)[C@@H](CC[C@@]2(O)/C=C/c2ccccc2)[C@@H]2CCc3cc(O)ccc3[C@H]21", 15]
]}

For each entry beneath this line, provide reported RBA.
1. CO[C@H]1C[C@@]2(C)[C@@H](CC[C@@]2(O)/C=C/c2ccccc2C(F)(F)F)[C@@H]2CCc3cc(O)ccc3[C@H]21
2. C[C@]12CC[C@@H]3c4ccc(O)cc4CC[C@H]3[C@@H]1CC[C@@]2(O)/C=C/c1ccccc1

Response line:
[212, 18]

----------
Consider the following compounds; for each one, report its RBA.
- TEST TARGET: Estrogen receptor (Homo sapiens) (UniProt P03372)
- Sequence (P03372 whole entry): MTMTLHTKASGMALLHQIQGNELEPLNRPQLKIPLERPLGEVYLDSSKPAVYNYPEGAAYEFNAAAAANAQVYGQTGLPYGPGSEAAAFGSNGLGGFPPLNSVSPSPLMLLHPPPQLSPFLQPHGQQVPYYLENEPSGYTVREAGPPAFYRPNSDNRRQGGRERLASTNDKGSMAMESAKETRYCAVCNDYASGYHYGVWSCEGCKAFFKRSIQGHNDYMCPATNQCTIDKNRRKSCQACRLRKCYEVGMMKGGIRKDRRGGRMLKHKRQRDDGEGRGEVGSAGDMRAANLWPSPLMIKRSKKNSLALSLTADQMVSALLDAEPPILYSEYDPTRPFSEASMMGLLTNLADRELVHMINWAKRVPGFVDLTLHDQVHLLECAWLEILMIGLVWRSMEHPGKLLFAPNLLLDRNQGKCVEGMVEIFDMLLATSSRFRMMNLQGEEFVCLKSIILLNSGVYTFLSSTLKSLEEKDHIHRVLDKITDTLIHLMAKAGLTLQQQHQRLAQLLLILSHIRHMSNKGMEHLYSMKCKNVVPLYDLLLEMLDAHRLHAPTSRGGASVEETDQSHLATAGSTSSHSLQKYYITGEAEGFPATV
- TEST DETAILS: Displacement of [3H]estradiol from ERalpha isolated from BL21 cells relative to estradiol at 25 degC
- Assay type: cell-free

{"columns": ["STRUCTURE SMILES", "TEST TARGET", "READING"],
 "data": [
  ["C[C@]12CC[C@@H]3c4ccc(O)cc4CC[C@H]3[C@@H]1CC[C@@]2(O)/C=C/c1ccccc1C(F)(F)F", "Estrogen receptor (Homo sapiens) (UniProt P03372)", 223],
  ["C[C@]12CC[C@@H]3c4ccc(O)cc4CC[C@H]3[C@@H]1CC[C@@]2(O)/C=C/c1cccc(C(F)(F)F)c1", "Estrogen receptor (Homo sapiens) (UniProt P03372)", 75],
  ["C[C@]12CC[C@@H]3c4ccc(O)cc4CC[C@H]3[C@@H]1CC[C@@]2(O)/C=C/c1ccc(C(F)(F)F)cc1", "Estrogen receptor (Homo sapiens) (UniProt P03372)", 8]
]}

Next, consider the following compound.
Prompt line: For Estrogen receptor (Homo sapiens) (UniProt P03372), give the measured RBA of the entry `CO[C@H]1C[C@@]2(C)[C@@H](CC[C@@]2(O)/C=C/c2cccc(C(F)(F)F)c2)[C@@H]2CCc3cc(O)ccc3[C@H]21`
Response line: 65
